# System: IGR37-XP cells (Vemurafenib-resistant)
# procedure-details: Kinase inhibitor library screening, PrestoBlue cell viability, 1 or 10 μM, 72 h
# condition-label: IGR37 XP, 10μΜ, 72 h
assay-endpoint: cell viability, IGR37 XP, 10μΜ

>>> reported_result("COc1cc2c(N3CCN(C(=O)Nc4ccc(OC(C)C)cc4)CC3)ncnc2cc1OCCCN1CCCCC1 [Tandutinib (MLN518)]")
"43.4%"
>>> reported_result("CN1CCN(c2cccc(Nc3nc4c(-c5ccc(S(C)(=O)=O)cc5)cccn4n3)c2)CC1 [CEP33779]")
"28.8%"
>>> reported_result("C#Cc1cccc(Nc2ncnc3cc(OCCOC)c(OCCO)cc23)c1 [Desmethyl Erlotinib (CP-473420)]")
"49.7%"
>>> reported_result("CN1CCN(c2ccc3nc(-c4c(N)c5c(F)cccc5[nH]c4=O)[nH]c3c2)CC1 [Dovitinib (TKI-258)]")
"22.5%"
>>> reported_result("CC(=O)Nc1cccc(-n2c(=O)n(C3CC3)c(=O)c3c(Nc4ccc(I)cc4F)n(C)c(=O)c(C)c32)c1 [GSK1120212 (Trametinib)]")
"22.1%"
>>> reported_result("CC(C)(C)c1cc(/C=C(\\C#N)C(N)=S)cc(C(C)(C)C)c1O [Tyrphostin AG 879 (AG 879)]")
"21.5%"
>>> reported_result("CCc1cc(Nc2nccc(-c3c(-c4ccc(OC)c(C(=O)Nc5c(F)cccc5F)c4)nc4ccccn34)n2)c(OC)cc1N1CCC(N2CCN(S(C)(=O)=O)CC2)CC1 [GSK1904529A]")
"20.4%"
